Test system: BT-549
TEST_METHOD_NOTES: NCI tumour cell line growth inhibition, 48 h
The source made the active and inactive calls. Rule as the data show it: active = GI50 up to about 1.1 µM and inactive = higher.
// reported GI50 per item
EXPERIMENTAL_READOUT: GI50

- COMPOUND: "N#C[BH2-][n+]1cn(C2CC(OP(=O)(O)OCC3OC(n4cnc5c(=O)[nH]c(N)nc54)CC3O)C(CO)O2)c2nc(N)[nH]c(=O)c21 (centres undefined)"
  EXPERIMENTAL_READOUT: "GI50"
  RESULT: "> 100 µM (inactive)"
- COMPOUND: "O=C(O)Cn1ncn(NC(=O)Cc2ccccc2)c1=S"
  EXPERIMENTAL_READOUT: "GI50"
  RESULT: "> 10 µM (inactive)"
- COMPOUND: "O=C1/C(=C\\c2cccc(Oc3ccccc3)c2)SC(c2ccccc2)N1c1cccc(Cl)c1 (centres undefined)"
  EXPERIMENTAL_READOUT: "GI50"
  RESULT: "> 100 µM (inactive)"
- COMPOUND: "Cc1ccc(-c2cn3c(nc4ccccc43)c(-c3ccccc3)n2)cc1"
  EXPERIMENTAL_READOUT: "GI50"
  RESULT: "32.5 µM (inactive)"
- COMPOUND: "C[n+]1c2ccccc2c2/c(=C\\C#N)c3ccccc3n21"
  EXPERIMENTAL_READOUT: "GI50"
  RESULT: "3.42 µM (inactive)"
- COMPOUND: "CN(C)CCN1C(=O)N(CCN(C)C)c2c3cc(O)ccc3nc3c([N+](=O)[O-])ccc1c23"
  EXPERIMENTAL_READOUT: "GI50"
  RESULT: "19.8 µM (inactive)"
- COMPOUND: "COc1cc(S(=O)(=O)Nc2ccc(-c3csc(N4C(=O)C(Cl)C4c4cccc(Oc5ccccc5)c4)n3)cc2)ccc1Cl (centres undefined)"
  EXPERIMENTAL_READOUT: "GI50"
  RESULT: "21.2 µM (inactive)"
- COMPOUND: "O=c1c(-c2ccc(Cl)cc2)nnc2n(Cc3ccccc3)c3ccccc3n12"
  EXPERIMENTAL_READOUT: "GI50"
  RESULT: "22 µM (inactive)"
- COMPOUND: "Oc1cc2c3c(c1)c1cc4c(cc1c[n+]3CC2)OCO4"
  EXPERIMENTAL_READOUT: "GI50"
  RESULT: "1.77 µM (inactive)"
